System: T-47D breast
measurement-description: NCI tumour cell line growth inhibition, 48 h
measurement-name: GI50

Some solved cases for reference:
O=C(/C=C/c1ccco1)Nc1ncc(Cc2cccc(C(F)(F)F)c2)s1	0.12 µM
[N-]=[N+]=NCCCn1c2c(c3ccc([N+](=O)[O-])cc3c1=O)C(=O)c1cc(I)ccc1-2	3.87 µM
COc1ccc(/C(=C/c2ccc3ccccc3c2)c2nn[nH]n2)cc1OC	28.2 µM
CN1C(=O)/C(=C2\S/C(=N\c3nnc(-c4ccccc4)o3)NC2=O)c2ccccc21	> 100 µM
CCSc1nc(NC(C)c2ccccc2)c2cnn(CO)c2n1 (stereo unspecified)	> 100 µM

Record GI50 for all entries; do not skip any.
1. C=C1C[C@@H](O)[C@@H](Br)C(C)(C)[C@]12CCC(C)(Br)C(Cl)C2 (stereo partly specified)
2. COc1ccc(N=N/C(=N\NC(=O)c2cc(Br)ccc2O)c2ccc(N(CCC#N)CCC#N)cc2OC)cc1
3. O=C1Nc2ccc(O)cc2/C1=C\c1ccncc1
4. Clc1ccc(C2CC(c3cccc(Nc4ccncc4)c3)=NN2c2ccccc2)cc1 (stereo unspecified)
5. Cc1cc(O[C@@H]2O[C@@H](C)[C@H](O)[C@@H](O)[C@H]2O)c2c3c(c(O[C@@H]4O[C@@H](C)[C@H](O)[C@@H](O)[C@H]4O)cc2c1)C(=O)c1c(O)cccc1C3=O
6. NC(=O)c1cc(I)ccc1NC(=O)/C=C/c1ccccc1Cl

1: 19 µM; 2: 72.5 µg/mL; 3: 26.9 µM; 4: 2.1 µM; 5: > 30 µM; 6: 3.13 µM

====

Exercise: for every item that follows, state its recorded TGI.
System: MDA-N
measurement-description: NCI tumour cell line growth inhibition, 48 h

Record TGI for all entries; do not skip any.
1. CN(CC(=O)O)CC(=O)O
2. COc1ccc(/C=C2\C[C@H]3[C@@H]4CC=C5C[C@@H](OC(C)=O)CC[C@]5(C)[C@H]4CC[C@]3(C)C2=O)cc1OC
3. O=C(O)CCNc1ncc2c(n1)-c1ccccc1OC2
4. COc1ccc(OC)c(N=Cc2cc(OC)c(OC)c(OC)c2)c1
5. C=C1C2C[C@@H]3O[C@H]4C[C@H]5O[C@@]6(C[C@@H]7O[C@]8(C[C@H](C)[C@@H]9O[C@@H]%10CC(C=O)O[C@@H]%10C[C@@H]9O8)C[C@H](C)[C@@H]7O6)C[C@H]5O[C@H]4[C@H](C)[C@H]3OC(=O)C[C@H]3CC[C@@H]4OC5[C@H]6O[C@]7(CC[C@H]8CC(=C)[C@H](CC[C@@H](C[C@H]1C)O2)O8)CC6O[C@@H]5[C@@H](O7)[C@H]4O3 (stereo not given in full)
6. CC(C)=CC1C(COC(=O)c2ccccc2Cl)C1(C)C (stereo not given)

["> 100 µM", "> 100 µM", "> 100 µM", "> 100 µM", "< 0.0001 µM", "> 100 µM"]

====

System: A498 renal
measurement-description: NCI tumour cell line growth inhibition, 48 h
measurement-name: TGI
State the result as a value with its unit after it.

Some solved cases for reference:
CC(=O)Nc1c2sscc-2n(C)c1=O	3.27 µM
CN(C)CCCOc1ccc(/C=C2/CCC/C(=C/c3ccc(OCCCN(C)C)cc3)C2=O)cc1	3.65 µM
COc1cccc(C2c3cc4c(cc3OC(NNC(N)=O)C2C)OCO4)c1O (centres undefined)	42.4 µM

Next compound, TGI to be filled in.
Query TGI on A498 renal for C/C=C(\C)c1cc(=O)c2c(C)cc3c(c2o1)C(OC)(OC(C)=O)c1c(O)c(C2CC(C)(N(C)C)C(OC(C)=O)C(C)O2)cc(C2CC(N(C)C)C(OC(C)=O)C(C)O2)c1C3=O (centres undefined)
3.49 µM

====

Test system: SNB-75 CNS
measurement-description: NCI tumour cell line growth inhibition, 48 h; in the data active = GI50 below about 0.43 µM; inactive = the rest
// allowed return values: t = active, f = inactive

Previously resolved entries follow.
Fc1ccc(Nc2ncc(-c3cc(F)c(Cl)cc3Cl)s2)cc1Cl	f
CCCCCCCCCCCCNC(=O)N[C@H](C(=O)N[C@H]1/C=C/CCNC(=O)/C=C/[C@H](C)NC1=O)C(C)C	t
CC(C)C(=O)Nc1ccc(-c2nc(-c3cccc(OCCN4CCOCC4)c3)c(-c3ccnc(Br)c3)[nH]2)cc1	f

Look up the recorded call for "CCCCOC(=O)/C=C\C(=O)NC(N)=O" in this test.
f

Look up the recorded call for "O=C(/C=C/c1ccco1)Nc1ncc(Cc2cccc(C(F)(F)F)c2)s1" in this test.
t

Look up the recorded call for "CN1CCN(Cc2ccc(NC(=O)c3cncc(C#Cc4c(N)ncc5c(F)cccc45)c3)cc2C(F)(F)F)CC1" in this test.
f

Look up the recorded call for "Cc1cc(I)cc(CNCCN2CCOCC2)c1O" in this test.
f

Look up the recorded call for COc1ccc(C2=NN(C=O)C(c3ccc(OS(=O)(=O)c4ccc(C)cc4)c(OC)c3)C2)cc1 (centres undefined) in this test.
f

Look up the recorded call for CC(C)(C)[Si](C)(C)OC1[C@@H](O[Si](C)(C)C(C)(C)C)[C@@H](CNC(=O)NC(=O)NC(=O)CCl)O[C@H]1n1cnc2c(NC(=O)Nc3ccccc3)ncnc21 (some centres undefined) in this test.
f

Look up the recorded call for "N.N.N.N.N.N#Cc1nn[n-]n1.[Cl-].[Co+3]" in this test.
f

Look up the recorded call for "CS(=O)(=O)O[C@H]1C(=O)N(c2cc3c4ccccc4ccc3c3ccccc23)[C@@H]1c1ccccn1" in this test.
t

Look up the recorded call for "[N-]=[N+]=NCCCn1c2c(c3ccc([N+](=O)[O-])cc3c1=O)C(=O)c1cc(I)ccc1-2" in this test.
f

Look up the recorded call for "CN1C(=O)/C(=C2\S/C(=N\c3nnc(-c4ccccc4)o3)NC2=O)c2ccccc21" in this test.
f

Look up the recorded call for "COC1=CC(c2ccc[nH]2)=N/C1=C\c1[nH]c(C)c(C(=O)Oc2ccccc2)c1C" in this test.
t

====

Tested on: SF-539 CNS
measurement-description: NCI tumour cell line growth inhibition, 48 h
measurement-name: GI50

Record GI50 for all entries; do not skip any.
1. C=C1C(=O)O[C@@H]2C[C@@H]1CC[C@]1(C)O[C@H]1CC/C(C)=C/CC[C@@]2(C)O
2. CS(=O)(=O)O[C@H]1C(=O)N(c2cc3c4ccccc4ccc3c3ccccc23)[C@@H]1c1ccccn1

16500 nM
316 nM

Record GI50 for all entries; do not skip any.
1. COc1ccc(C2=NN(C=O)C(c3ccc(OS(=O)(=O)c4ccc(C)cc4)c(OC)c3)C2)cc1 (stereo not drawn)
2. CS(=O)(=O)c1ccc2c(c1)C(=O)c1c-2n(CCCBr)c(=O)c2cc([N+](=O)[O-])ccc12
3. COc1cc(N2CCN(C(C)C)CC2)ccc1Nc1nc(Nc2ccc(F)cc2C(=O)NCC(O)CO)c2cc[nH]c2n1 (stereo not drawn)
4. CN1CCN(Cc2ccc(NC(=O)c3cncc(C#Cc4c(N)ncc5c(F)cccc45)c3)cc2C(F)(F)F)CC1
5. CCC1=C[C@@H]2CN(C1)Cc1c([nH]c3ccccc13)[C@@](C(=O)OC)(c1cc3c(cc1OC)N(C)[C@H]1[C@@](O)(C(=O)OC)[C@H](OC(C)=O)[C@]4(CC)C=CCN5CC[C@]31[C@@H]54)C2
6. O=C(Nc1ccc(Oc2ccc(NC(=O)Nc3ccccc3Cl)cc2)cc1)Nc1ccccc1Cl

["8620 nM", "24000 nM", "5130 nM", "593 nM", "< 10 nM", "6000 nM"]

Record GI50 for all entries; do not skip any.
1. Cc1ccc(/C=C(/C#N)n2nnc3ncccc32)cc1
2. CCOC(=O)Nc1ccc2nc(N3CCCCCC3)sc2c1

2470 nM
1590 nM

Record GI50 for all entries; do not skip any.
1. CCC[CH2][Sn]1([CH2]CCC)[O]C(=O)CN=C(C)c2ccccc2[O]1
2. CC(=O)NC(CS)C(=O)O (stereo not drawn)
3. Nc1nc(=S)c2ncn(C3OC(CO)C(O)C3O)c2[nH]1 (stereo not drawn)
4. Cc1cc2c(C(=O)NCC#N)cccc2n1-c1nc2c(c(NCc3ccccc3)n1)CCCC2
5. O=C(COc1cccc(/C=C2\COc3ccccc3C2=O)c1)c1ccccc1
6. N.N.N.N.N.N#Cc1nn[n-]n1.[Cl-].[Co+3]
7. CCCCCCCCCCCCNC(=O)N[C@H](C(=O)N[C@H]1/C=C/CCNC(=O)/C=C/[C@H](C)NC1=O)C(C)C
8. CC(=O)OC1CC2C(C)(C)CCC[C@]2(C)C2=C1C(O)=C(C(C)C)C(=O)C2=O (stereo partly drawn)

1: 2780 nM; 2: > 100000 nM; 3: 745 nM; 4: 249 nM; 5: 15600 nM; 6: > 100000 nM; 7: 80.5 nM; 8: 723 nM
